# assayedSystem: c-Raf (Homo sapiens, UniProt P04049)
# Sequence (P04049 whole entry): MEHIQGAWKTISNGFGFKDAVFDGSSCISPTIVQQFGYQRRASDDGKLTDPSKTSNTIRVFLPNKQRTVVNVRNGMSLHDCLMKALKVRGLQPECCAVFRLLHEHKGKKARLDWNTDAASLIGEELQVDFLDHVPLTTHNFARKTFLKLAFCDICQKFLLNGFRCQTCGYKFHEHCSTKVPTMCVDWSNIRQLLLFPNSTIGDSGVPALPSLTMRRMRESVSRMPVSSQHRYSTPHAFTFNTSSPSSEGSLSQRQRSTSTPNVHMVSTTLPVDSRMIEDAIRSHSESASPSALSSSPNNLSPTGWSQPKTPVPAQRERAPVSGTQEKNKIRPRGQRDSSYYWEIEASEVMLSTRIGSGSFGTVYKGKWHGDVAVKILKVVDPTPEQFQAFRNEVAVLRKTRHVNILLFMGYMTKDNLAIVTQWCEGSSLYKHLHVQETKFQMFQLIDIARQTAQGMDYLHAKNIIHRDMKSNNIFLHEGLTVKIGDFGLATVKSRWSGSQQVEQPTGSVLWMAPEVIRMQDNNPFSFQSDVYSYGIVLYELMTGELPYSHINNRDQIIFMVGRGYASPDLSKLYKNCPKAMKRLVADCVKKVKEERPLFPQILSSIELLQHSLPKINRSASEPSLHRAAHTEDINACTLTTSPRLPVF
# measurementProtocol: Luciferase-coupled chemiluminescence kinase assay (ATP consumption), c-Raf
# Type: biochemical
# assayConditions: read-out: cRaf-1 IC50
pIC50: −log10 of the molar value.
quantityName: pIC50

Here is how some compounds turned out for pIC50.
[
  {
    "compound": "COC(=O)Nc1nc2cc(C3(O)c4ccccc4C(=O)N3c3ccc(Cl)c(Cl)c3)ccc2[nH]1 (centres unmarked)",
    "pIC50": "> 7.00"
  },
  {
    "compound": "O=C1c2ccccc2C(O)(c2ccc3[nH]ncc3c2)N1Cc1ccccc1 (centres unmarked)",
    "pIC50": "6.00 to 7.00"
  },
  {
    "compound": "O=C(NCc1ccccc1)Nc1nc2cc(C3(O)c4ccccc4C(=O)N3Cc3ccccc3)ccc2[nH]1 (centres unmarked)",
    "pIC50": "> 7.00"
  },
  {
    "compound": "O=C(Nc1nc2cc(C3(O)c4ccccc4C(=O)N3Cc3ccccc3)ccc2[nH]1)N1CCOCC1 (centres unmarked)",
    "pIC50": "6.00 to 7.00"
  },
  {
    "compound": "COC(=O)Nc1nc2cc(C3(O)c4ccccc4C(=O)N3c3cc(Cl)c(F)c(Cl)c3)ccc2[nH]1 (centres unmarked)",
    "pIC50": "6.00 to 7.00"
  }
]

Request: // lookup pIC50 for COC(=O)Nc1nc2cc(C3(O)c4ccccc4C(=O)N3c3cccc(Nc4ccccc4)c3)ccc2[nH]1 (centres unmarked)
Response: 6.00 to 7.00

Request: Returns the measured pIC50 for the input compound. Input: COC(=O)Nc1nc2cc(C3(O)c4ccccc4C(=O)N3[C@H](C)c3ccccc3)ccc2[nH]1 (some centres unmarked)
Response: > 7.00

Request: Which pIC50 is reported for this compound? COC(=O)Nc1nc2cc(C3(O)c4ccccc4C(=O)N3c3cc(Br)c(F)cc3F)ccc2[nH]1 (centres unmarked)
Response: > 7.00

Request: Suppose we examine the compound COC(=O)Nc1nc2cc(C3(O)c4ccccc4C(=O)N3c3cccc(C(F)(F)F)c3)ccc2[nH]1 (centres unmarked) ; what pIC50 value has been reported?
Response: > 7.00

Request: What does the data say about its pIC50? Entry: C#Cc1cccc(N2C(=O)c3ccccc3C2(O)c2ccc3c(c2)NC(=O)CO3)c1 (centres unmarked)
Response: 6.00 to 7.00

----------
# assayedSystem: c-Raf (Homo sapiens)
# measurementProtocol: Luciferase-coupled chemiluminescence kinase assay (ATP consumption), c-Raf
# Format: biochemical
# assayConditions: read-out: cRaf-1 IC50
pIC50: −log10 of the molar value.
The molecules listed here are annotated with their pIC50.

[
  {
    "molecule": "COC(=O)Nc1nc2ccc(C3(O)c4ccccc4C(=O)N3Cc3cccc(F)c3)cc2[nH]1 (stereo not shown)",
    "pIC50": "> 7.00"
  },
  {
    "molecule": "COC(=O)Nc1nc2cc(C3(O)c4ccccc4C(=O)N3c3cccc(-c4ccccc4)c3)ccc2[nH]1 (stereo not shown)",
    "pIC50": "5.00 to 6.00"
  },
  {
    "molecule": "COC(=O)Nc1nc2cc(C3(O)c4ccccc4C(=O)N3CC3CC3)ccc2[nH]1 (stereo not shown)",
    "pIC50": "6.00 to 7.00"
  },
  {
    "molecule": "O=C1COc2ccc(C3(O)c4ccccc4C(=O)N3c3ccc(F)c(F)c3)cc2N1 (stereo not shown)",
    "pIC50": "5.00 to 6.00"
  },
  {
    "molecule": "COC(=O)Nc1nc2cc(C3(O)c4ccccc4C(=O)N3c3cccc(Br)c3F)ccc2[nH]1 (stereo not shown)",
    "pIC50": "> 7.00"
  },
  {
    "molecule": "CNc1nc2cc(C3(O)c4ccccc4C(=O)N3Cc3ccccc3)ccc2[nH]1 (stereo not shown)",
    "pIC50": "5.00 to 6.00"
  }
]

Request: GET /values?readout=pIC50&item= COC(=O)Nc1nc2cc(C3(O)c4ccccc4C(=O)N3C(C)c3cc(F)cc(F)c3)ccc2[nH]1 (stereo not shown)
Response: 6.00 to 7.00

Request: # lookup: pIC50 of C#Cc1cc(N2C(=O)c3ccccc3C2(O)c2ccc3[nH]c(NC(=O)OC)nc3c2)ccc1F (stereo not shown)
Response: > 7.00

Request: Would you kindly share the measured pIC50 for COC(=O)Nc1nc2cc(C3(O)c4ccccc4C(=O)N3c3cccc(OCc4ccccc4)c3)ccc2[nH]1 (stereo not shown) ?
Response: > 7.00

----------
Reported IC50 by item:
# assayedSystem: B-Raf (Homo sapiens, UniProt P15056)
# Sequence (P15056 whole entry): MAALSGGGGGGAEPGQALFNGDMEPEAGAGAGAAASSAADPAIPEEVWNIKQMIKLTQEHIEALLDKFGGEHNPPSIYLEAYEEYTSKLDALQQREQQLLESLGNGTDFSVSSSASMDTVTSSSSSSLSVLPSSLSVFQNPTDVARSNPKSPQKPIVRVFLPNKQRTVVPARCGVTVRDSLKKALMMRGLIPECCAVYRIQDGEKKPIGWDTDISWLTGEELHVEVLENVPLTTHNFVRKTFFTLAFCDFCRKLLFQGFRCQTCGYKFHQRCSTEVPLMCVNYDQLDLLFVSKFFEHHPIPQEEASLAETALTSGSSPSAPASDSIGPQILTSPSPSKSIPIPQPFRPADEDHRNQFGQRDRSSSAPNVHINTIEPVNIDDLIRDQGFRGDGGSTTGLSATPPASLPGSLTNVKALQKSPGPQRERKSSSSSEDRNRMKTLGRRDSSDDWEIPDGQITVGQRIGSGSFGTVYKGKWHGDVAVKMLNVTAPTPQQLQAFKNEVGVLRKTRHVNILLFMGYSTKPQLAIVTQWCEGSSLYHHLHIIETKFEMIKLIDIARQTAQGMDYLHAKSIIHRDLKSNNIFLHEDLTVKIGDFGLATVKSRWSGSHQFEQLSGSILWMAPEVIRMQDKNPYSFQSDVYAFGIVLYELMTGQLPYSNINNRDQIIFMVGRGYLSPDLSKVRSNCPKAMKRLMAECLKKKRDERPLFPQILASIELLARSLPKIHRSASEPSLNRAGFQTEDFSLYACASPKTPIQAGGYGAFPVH
# measurementProtocol: Luciferase-coupled chemiluminescence kinase assay (ATP consumption), B-Raf
# Format: biochemical
# assayConditions: read-out: bRaf IC50

[
  {
    "compound": "COC(=O)Nc1nc2cc(C3(O)c4ccccc4C(=O)N3C(C)c3cc(C)cs3)ccc2[nH]1 (centres unmarked) [Entry 209]",
    "IC50": "< 100 nM"
  },
  {
    "compound": "COC(=O)Nc1nc2ccc(C3(O)c4ccccc4C(=O)N3c3ccc(Cl)c(Cl)c3F)cc2[nH]1 (centres unmarked) [Entry 228]",
    "IC50": "< 100 nM"
  }
]

Request: Please look up its IC50: O=C(Nc1nc2cc(C3(O)c4ccccc4C(=O)N3Cc3ccccc3)ccc2[nH]1)OC1CCCCC1 (centres unmarked) [Entry 185]
Response: 100 to 1000 nM

Request: GET /values?readout=IC50&item= COC(=O)Nc1nc2cc(C3(O)c4ccccc4C(=O)N3Cc3cccc(C)c3)ccc2[nH]1 (centres unmarked) [Entry 131]
Response: < 100 nM

Request: Fill blank: measured IC50 of the compound CC#CCOC(=O)Nc1nc2cc(C3(O)c4ccccc4C(=O)N3Cc3ccccc3)ccc2[nH]1 (centres unmarked) [Entry 109] is ____.
Response: < 100 nM

Request: If you can, please state the reported IC50 value of COC(=O)Nc1nc2cc(C3(O)c4ccccc4C(=O)N3C(C)c3ccc(Cl)s3)ccc2[nH]1 (centres unmarked) [Entry 202] .
Response: < 100 nM

Request: So what does the record say about IC50 for COC(=O)Nc1nc2cc(C3(O)c4ccccc4C(=O)N3c3cccc(C#N)c3)ccc2[nH]1 (centres unmarked) [Entry 225] ?
Response: 100 to 1000 nM

Request: If you can, please state the reported IC50 value of COC(=O)Nc1nc2cc(C3(O)c4ccccc4C(=O)N3[C@H](C)c3ccccc3)ccc2[nH]1 (some centres unmarked) [Entry 104] .
Response: < 100 nM

----------
# assayedSystem: c-Raf (Homo sapiens, UniProt P04049)
# measurementProtocol: Luciferase-coupled chemiluminescence kinase assay (ATP consumption), c-Raf
# Type: biochemical
# assayConditions: read-out: cRaf-1 IC50
quantityName: IC50

Here are 3 molecules together with their reported answers.
[
  {
    "molecule": "CSc1ccccc1CN1C(=O)c2ccccc2C1(O)c1ccc2c(c1)NC(=O)CO2 (stereo not shown)",
    "endpointValue": "≥ 10000 nM"
  },
  {
    "molecule": "CC(C)OC(=O)Nc1nc2cc(C3(O)c4ccccc4C(=O)N3Cc3ccccc3)ccc2[nH]1 (stereo not shown)",
    "endpointValue": "< 100 nM"
  },
  {
    "molecule": "COC(=O)Nc1nc2cc(C3(O)c4ccccc4C(=O)N3Cc3nccs3)ccc2[nH]1 (stereo not shown)",
    "endpointValue": "100 to 1000 nM"
  }
]

We now examine a further molecule.
Request: Requested read-out: IC50. Entry: CN1CCN(CCCOC(=O)Nc2nc3ccc(C4(O)c5ccccc5C(=O)N4Cc4ccccc4)cc3[nH]2)CC1 (stereo not shown)
Response: < 100 nM

----------
# assayedSystem: c-Raf (Homo sapiens, UniProt P04049)
# measurementProtocol: Luciferase-coupled chemiluminescence kinase assay (ATP consumption), c-Raf
# Format: biochemical
# assayConditions: read-out: cRaf-1 IC50
pIC50: −log10 of the molar value.
quantityName: pIC50

In the examples that follow, each entry is paired with its recorded pIC50.
[
  {
    "molecule": "O=C1COc2ccc(C3(O)c4ccccc4C(=O)N3Cc3cccc(F)c3)cc2N1 (centres unmarked)",
    "assayedSystem": "c-Raf (Homo sapiens, UniProt P04049)",
    "pIC50": "5.00 to 6.00"
  },
  {
    "molecule": "COC(=O)Nc1nc2cc(C3(O)c4ccccc4C(=O)N3c3cccc(C4CCNCC4)c3)ccc2[nH]1 (centres unmarked)",
    "assayedSystem": "c-Raf (Homo sapiens, UniProt P04049)",
    "pIC50": "6.00 to 7.00"
  },
  {
    "molecule": "O=C1COc2ccc(C3(O)c4ccccc4C(=O)N3Cc3cc(Br)ccc3F)cc2N1 (centres unmarked)",
    "assayedSystem": "c-Raf (Homo sapiens, UniProt P04049)",
    "pIC50": "5.00 to 6.00"
  }
]

Request: What value of measured pIC50 is listed for COC(=O)Nc1nc2cc(C3(O)c4ccccc4C(=O)N3C(C)c3cc(Cl)ccc3C)ccc2[nH]1 (centres unmarked) ?
Response: 5.00 to 6.00

Request: For the molecule COC(=O)Nc1nc2cc(C3(O)c4ccccc4C(=O)N3c3ccc(F)c(C)c3)ccc2[nH]1 (centres unmarked) , what pIC50 is on record?
Response: > 7.00

Request: Report pIC50 for COC(=O)Nc1nc2cc(C3(O)c4ccccc4C(=O)N3CC3CCCO3)ccc2[nH]1 (centres unmarked) please.
Response: 6.00 to 7.00

Request: What measured pIC50 goes with CC(C)COC(=O)Nc1nc2cc(C3(O)c4ccccc4C(=O)N3Cc3ccccc3)ccc2[nH]1 (centres unmarked) ?
Response: 6.00 to 7.00

Request: Return reported pIC50; argument: O=C(CCCOCc1ccccc1)Nc1nc2cc(C3(O)c4ccccc4C(=O)N3Cc3ccccc3)ccc2[nH]1 (centres unmarked)
Response: > 7.00

src = patent US7846959B2
